- Tested on: Caco-2
- test.description: cell viability relative to DMSO; higher = less toxic
- condition.notes: 72 h; 100 nM
Examples of molecules with documented cell viability follow.
outcome.measure: cell viability (%)

[[record]]
molecule = "N#C/C(=C\\c1ccc(O)c(O)c1)C(=O)OCCc1cccs1"
assay_result = 91.8

[[record]]
molecule = "COc1cccc2c1C(=O)c1c(O)c3c(c(O)c1C2=O)C[C@@](O)(C(C)=O)C[C@@H]3O[C@H]1C[C@H](N)[C@H](O)[C@H](C)O1"
assay_result = 74.6

[[record]]
molecule = "CCOC(=O)Nc1ccc(NCc2ccc(F)cc2)cc1N"
assay_result = 104

[[record]]
molecule = "CC1Nc2ccc(Cl)cc2S(=O)(=O)N1 (stereo not drawn)"
assay_result = 95

[[record]]
molecule = "COc1ccc(N(C(=O)Oc2c(C)cccc2C)c2ccnc(Nc3ccc(N4CCN(C)CC4)cc3)n2)c(OC)c1"
assay_result = 102

[[record]]
molecule = "C=C1CC/C=C(\\C)CC[C@@H]2[C@@H]1CC2(C)C"
assay_result = 97.3

[[record]]
molecule = "O=C(c1cn(Cc2cncn2Cc2ccc(Br)cc2)cc1-c1cccc2ccccc12)N1CCOCC1"
assay_result = 94.4

[[record]]
molecule = "CC1=NN(c2ccc(C(=O)O)cc2)C(=O)C1=Cc1ccc(-c2cc(C)c(C)cc2[N+](=O)[O-])o1"
assay_result = 101


====

- Test system: A549-ACE2 infected with SARS-CoV-2
- test.description: SARS-CoV-2 infection rate relative to DMSO; higher = more infection
- condition.notes: 0.3 µM; 24 h
outcome.measure: SARS-CoV-2 infection rate (%)

[[record]]
molecule = "COC(=O)[C@@]12OC[C@]34[C@H]([C@@H](O)[C@@H]1O)[C@@]1(C)CC(=O)C(O)=C(C)[C@@H]1C[C@H]3OC(=O)[C@H](OC(=O)/C=C(\\C)C(C)C)[C@@H]24 [bruceantin]"
assay_result = 16

[[record]]
molecule = "CC[C@H]1CN2CCc3cc(OC)c(OC)cc3[C@@H]2C[C@@H]1C[C@H]1NCCc2cc(OC)c(OC)cc21 [emetine]"
assay_result = 5

[[record]]
molecule = "CN1CCN(Cc2ccc(-c3cnc4[nH]cc(-c5ccc6[nH]ccc6c5)c4c3)cc2)CC1 [URMC-099]"
assay_result = 102

[[record]]
molecule = "C[C@@H]1CN(CCCn2c3ccccc3c3ccccc32)C[C@H](C)N1 [rimcazole]"
assay_result = 104

[[record]]
molecule = "O=C(COc1ccc(Cl)cc1)N[C@H]1CC[C@H](NC(=O)COc2ccc(Cl)cc2)CC1 [ISRIB]"
assay_result = 100

[[record]]
molecule = "N#CC[C@@H](C1CCCC1)n1cc(-c2ncnc3[nH]ccc23)cn1 [ruxolitinib-(S)]"
assay_result = 109


====

Examples of compounds with documented cell viability follow.
- System: HepG2
- test.description: cell viability relative to DMSO; higher = less toxic
- condition.notes: 72 h; 100 nM
outcome.measure: cell viability (%)

[[record]]
compound_structure = "O=C1NC(c2cccc([N+](=O)[O-])c2)=CCN1c1ccccc1O"
outcome_measure = "cell viability"
unit_string = "%"
assay_result = 103

[[record]]
compound_structure = "N#Cc1ccnc(N2C(=O)CC[C@H]2C(=O)N(c2cncc(F)c2)[C@H](C(=O)NC2CC(F)(F)C2)c2ccccc2Cl)c1"
outcome_measure = "cell viability"
unit_string = "%"
assay_result = 95.1

[[record]]
compound_structure = "CC(C)(C)NC(=O)[C@@H]1C[C@@H]2CCCC[C@@H]2CN1C[C@@H](O)[C@H](Cc1ccccc1)NC(=O)[C@H](CC(N)=O)NC(=O)c1ccc2ccccc2n1"
outcome_measure = "cell viability"
unit_string = "%"
assay_result = 100

[[record]]
compound_structure = "COc1ccc(C2=N[C@@H](c3ccc(Cl)cc3)[C@@H](c3ccc(Cl)cc3)N2C(=O)N2CCNC(=O)C2)c(OC(C)C)c1"
outcome_measure = "cell viability"
unit_string = "%"
assay_result = 109

[[record]]
compound_structure = "C(#CCN1CCCC1)CN1CCCC1"
outcome_measure = "cell viability"
unit_string = "%"
assay_result = 100

[[record]]
compound_structure = "CSCC[C@H](NC(=O)[C@H](CC(C)C)NC(=O)CNC(=O)[C@H](Cc1ccccc1)NC(=O)[C@H](Cc1ccccc1)NC(=O)[C@H](CCC(N)=O)NC(=O)[C@H](CCC(N)=O)NC(=O)[C@@H]1CCCN1C(=O)[C@H](CCCCN)NC(=O)[C@@H]1CCCN1C(=O)[C@@H](N)CCCN=C(N)N)C(N)=O"
outcome_measure = "cell viability"
unit_string = "%"
assay_result = 100

